Test: Chemical stability of the compound in phosphate buffered saline of pH 7.4 assessed as NO release at 50 uM after 1.5 hr by Griess assay
Details: buffer, pH 7.4, 1.5 h
Would you mind labelling by Activity? At or over 50% is Satisfied, under is Not satisfied.

>>> df
                                   compound          group
0  COc1ccc2c(c1)c(CC(=O)OCCS(=O)(=O)NO)c(C)n2C(=O)c1ccc(Cl)cc1  Not satisfied
1  CCS(=O)(=O)NO [ETHANESULFONYLHYDROXAMIC ACID]      Satisfied
2              O=C(Cc1ccccc1)OCCS(=O)(=O)NO      Satisfied
3  COc1ccc2cc([C@H](C)C(=O)OCCS(=O)(=O)NO)ccc2c1      Satisfied
4  CC(C)Cc1ccc(C(C)C(=O)OCCS(=O)(=O)NO)cc1 (stereo unspecified)  Not satisfied
5  CONS(=O)(=O)CCOC(=O)C(C)c1ccc(CC(C)C)cc1 (stereo unspecified)  Not satisfied

---

Assay: Induction of HNO release per mol of compound in 0.6 mL MeOH, 0.2 mL of 1 M NaOH and 100 mM glutathione after 2 hr by gas chromatographic analysis
Assay type: physicochemical
Activity reference
MEASURE NAME: Activity

                                   compound  observed
0              O=C(Cc1ccccc1)OCCS(=O)(=O)NO        0%
1  CONS(=O)(=O)CCOC(=O)C(C)c1ccc(CC(C)C)cc1 (stereo unspecified)        0%
2  CC(C)Cc1ccc(C(C)C(=O)OCCS(=O)(=O)NO)cc1 (stereo unspecified)        0%
3  CCS(=O)(=O)NO [ETHANESULFONYLHYDROXAMIC ACID]        0%
4  COc1ccc2c(c1)c(CC(=O)OCCS(=O)(=O)NO)c(C)n2C(=O)c1ccc(Cl)cc1        1%
5  COc1ccc2cc([C@H](C)C(=O)OCCS(=O)(=O)NO)ccc2c1        2%

---

Assay: Induction of HNO release per mol of compound in 0.6 mL MeOH, 0.2 mL of 1 M NaOH and 100 mM glutathione after 24 hr by gas chromatographic analysis
Type: physicochemical
MEASURE NAME: Activity (%)

>>> print(df.to_string())
                                   molecule  observed
0  CONS(=O)(=O)CCOC(=O)C(C)c1ccc(CC(C)C)cc1 (stereo unspecified)         0
1              O=C(Cc1ccccc1)OCCS(=O)(=O)NO         7
2  COc1ccc2cc([C@H](C)C(=O)OCCS(=O)(=O)NO)ccc2c1         4
3  CC(C)Cc1ccc(C(C)C(=O)OCCS(=O)(=O)NO)cc1 (stereo unspecified)         7
4  COc1ccc2c(c1)c(CC(=O)OCCS(=O)(=O)NO)c(C)n2C(=O)c1ccc(Cl)cc1         1
5  CCS(=O)(=O)NO [ETHANESULFONYLHYDROXAMIC ACID]         0
